- SYSTEM: Sodium-dependent serotonin transporter (Mus musculus)
- Sequence (Q60857 whole entry): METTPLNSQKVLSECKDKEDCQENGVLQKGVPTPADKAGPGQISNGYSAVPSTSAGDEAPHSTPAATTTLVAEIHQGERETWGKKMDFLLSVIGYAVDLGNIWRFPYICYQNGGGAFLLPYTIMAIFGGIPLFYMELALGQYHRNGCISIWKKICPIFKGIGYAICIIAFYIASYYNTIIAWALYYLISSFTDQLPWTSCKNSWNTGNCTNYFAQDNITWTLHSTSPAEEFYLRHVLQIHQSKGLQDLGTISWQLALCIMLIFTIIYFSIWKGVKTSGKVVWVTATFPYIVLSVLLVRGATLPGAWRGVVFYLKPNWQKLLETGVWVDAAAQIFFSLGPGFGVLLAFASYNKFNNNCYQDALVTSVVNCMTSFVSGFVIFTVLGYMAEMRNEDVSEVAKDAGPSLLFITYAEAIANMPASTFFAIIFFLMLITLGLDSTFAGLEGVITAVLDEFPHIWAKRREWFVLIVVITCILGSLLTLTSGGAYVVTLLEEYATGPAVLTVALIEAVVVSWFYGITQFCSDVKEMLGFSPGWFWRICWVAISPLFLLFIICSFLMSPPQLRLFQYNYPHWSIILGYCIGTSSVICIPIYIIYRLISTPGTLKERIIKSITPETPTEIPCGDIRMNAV
PROPERTY_NAME: Ki (nM)
Numeric answer only, unit nM assumed.

Q: Requested read-out: Ki. Entry: COC[C@@]12CNCC[C@]1(c1ccc(Cl)c(Cl)c1)C2 (relative stereo; 17)
Ans: 1.58

###

- METHOD_SUMMARY: Half life in rat
- Type: ADME, organism-based
- PROTOCOL_CONDITIONS: in vivo
PROPERTY_NAME: half-life (h)
Quick note: give the figure in h, leave out the unit.

Q: // lookup half-life for COC[C@@]12CNCC[C@]1(c1ccc(Cl)c(Cl)c1)C2 (relative stereo; 17)
Ans: 1.7

###

Items are presented alongside their recorded log10 of Ki.
- SYSTEM: UniProt:P23975
- METHOD_SUMMARY: Displacement of [N-methyl-3H]nisoxetine from human recombinant NET expressed in pig LLCPK cells after 2 hrs by liquid scintillation counting
- Format: cell-based
Please note: log10 values; quantity Ki; unit nM.

Below are worked cases with known answers.
[[record]]
molecule = "Clc1ccc([C@]23CCNC[C@@]2(COCC2CC2)C3)cc1Cl (relative stereo; 35)"
system = "UniProt:P23975"
assay_result = 2.10

[[record]]
molecule = "Clc1ccc([C@]23CNCC[C@H]2C3)cc1Cl (racemic)"
system = "UniProt:P23975"
assay_result = 2.20

[[record]]
molecule = "Clc1ccc([C@]23CCNC[C@@]2(COCC2CC2)C3)cc1Cl (relative stereo; 34)"
system = "UniProt:P23975"
assay_result = 1.30

[[record]]
molecule = "Clc1ccc([C@@]23CCNC[C@@H]2C3)cc1Cl (racemic)"
system = "UniProt:P23975"
assay_result = 2.40


Q: Please report the recorded log10 of Ki for COC[C@@]12CNCC[C@]1(c1ccc(Cl)c(Cl)c1)C2 (relative stereo; 17) [GSK1360707] .
Ans: 0.90

Q: Request: COC[C@@]12CNC[C@@H](F)[C@]1(c1ccc(Cl)c(Cl)c1)C2 (racemic)
Ans: 1.70

Q: Next record, please: Clc1ccc([C@]23CNCC[C@H]2C3)cc1Cl (relative stereo; 5)
Ans: 2.60

Q: Repeat with COC[C@@]12CNCC[C@]1(c1ccc(Cl)c(Cl)c1)C2 (racemic) [GSK1360707]
Ans: 1.10

Q: Proceed to "COC[C@@]12CN(C(C)C)CC[C@]1(c1ccc(Cl)c(Cl)c1)C2"
Ans: 3.70

###

- SYSTEM: Sodium-dependent noradrenaline transporter (Homo sapiens, UniProt P23975)
- Sequence (P23975 whole entry): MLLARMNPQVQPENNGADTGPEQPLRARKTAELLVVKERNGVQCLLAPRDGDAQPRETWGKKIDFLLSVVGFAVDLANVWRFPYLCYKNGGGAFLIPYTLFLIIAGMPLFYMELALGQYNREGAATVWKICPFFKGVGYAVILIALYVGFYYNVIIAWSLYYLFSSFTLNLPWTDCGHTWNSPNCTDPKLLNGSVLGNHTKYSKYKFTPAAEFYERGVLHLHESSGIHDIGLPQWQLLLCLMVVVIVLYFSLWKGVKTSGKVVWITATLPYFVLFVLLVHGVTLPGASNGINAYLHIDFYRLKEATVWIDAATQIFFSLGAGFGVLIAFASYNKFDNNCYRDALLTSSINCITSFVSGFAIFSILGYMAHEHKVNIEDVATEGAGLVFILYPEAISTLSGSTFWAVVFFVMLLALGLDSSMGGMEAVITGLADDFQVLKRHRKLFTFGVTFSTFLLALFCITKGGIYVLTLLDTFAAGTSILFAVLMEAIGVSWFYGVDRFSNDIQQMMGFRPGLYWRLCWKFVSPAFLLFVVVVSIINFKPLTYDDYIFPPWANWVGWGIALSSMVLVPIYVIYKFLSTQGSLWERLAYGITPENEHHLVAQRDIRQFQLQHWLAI
- METHOD_SUMMARY: Displacement of [3H]nisoxetine from human recombinant NET by SPA
PROPERTY_NAME: Ki (µM)
Write the answer as a number in µM, unit excluded.

Q: May I ask what Ki has been recorded for COC[C@@]12CNCC[C@]1(c1ccc(Cl)c(Cl)c1)C2 (relative stereo; 17) [GSK1360707] ?
Ans: 0.012

###

- METHOD_SUMMARY: Oral bioavailability in rat
- Format: ADME, organism-based
- PROTOCOL_CONDITIONS: in vivo
PROPERTY_NAME: bioavailability (%)
Your answer should be a plain number; it is taken to be in %.

Q: Please look up its bioavailability: COC[C@@]12CNCC[C@]1(c1ccc(Cl)c(Cl)c1)C2 (relative stereo; 17)
Ans: 54

Values from ChEMBL document CHEMBL1177725
